target: T1, human full-length Notch1 with C-terminal FLAG tag, stably expressed on 293 FlpIn (TREx) cells (human, UniProt P46531 19-2555); assay: FACS, phage scFv
T1 construct: tetracycline/doxycycline-induced expression from pcDNA5/FRT/TO-HN1+FLAG; also called hN1; 293_N1
metric.name: binding result

binder | obs.value
N1wc129 (scFv, V domains shown, phage scFv) VH: QVQLVQSGAEVKKPGASVKVSCKASGYNFTGYYLHWVRQAPGQGLEWMGWIDPNSGGTDYAQQFQGRVTVTRDTSISTAYMELSGLRSDDTAVYYCASDSFDHWGQGTLVTVSS VL: QSVLTQPPSASGTPGQRATISCSGSGSNIGRNAVNWFQQLPGAAPKLLIYSNIHRPSGVPDRISGSKSGTSATLAISGLQSEDEADYYCATWDDSLNDYVFGTGTKLTVL | binds
N1wc140 (scFv, V domains shown, phage scFv) VH: QVQLQQSGAEVKKPGSSVKVSCRASGGTFSNYAISWVRQAPGQGLEWMGRIIPIFGGAHYAQKLQGRVSITADESTSTAHMELSSLRSEDAAVYYCASGAYYDVMGNYPYSGMDVWGRGTLVTVSS VL: SYVLTQPPSVSVSPGQTAKITCGGDKIETKSVHWYQQKPGQAPVLVIYEDTKRPSGISERLSGSSAGTVATLTITGAQVDDEADYFCYSTDATGTERVFGGGTKLTVL | binds
N1wc157 (scFv, V domains shown, phage scFv) VH: QVQLVQSGAGLKRPGTSVKISCKTSGYIFSQYPMHWVRQAPGQGLEWVAWVDTGNGTTRYSPNFQGRATVSGDTSANTGYLELRSLRFTDTAVYYCATNAFDYWGRGTLVTVSS VL: SYELTQPPSVSVSPGQTARITCSGDALPDKYVHWYQQKSGQAPVLVLFDDSKRPSGIPERFSGSSSGTVATLIISGAQVEDEGDFFCYSTDSSGNERVFGGGTKLTVL | binds
